targetOrSystem: ChDHFR-TS (Cryptosporidium hominis, UniProt Q27552)
Sequence (Q27552 1-521): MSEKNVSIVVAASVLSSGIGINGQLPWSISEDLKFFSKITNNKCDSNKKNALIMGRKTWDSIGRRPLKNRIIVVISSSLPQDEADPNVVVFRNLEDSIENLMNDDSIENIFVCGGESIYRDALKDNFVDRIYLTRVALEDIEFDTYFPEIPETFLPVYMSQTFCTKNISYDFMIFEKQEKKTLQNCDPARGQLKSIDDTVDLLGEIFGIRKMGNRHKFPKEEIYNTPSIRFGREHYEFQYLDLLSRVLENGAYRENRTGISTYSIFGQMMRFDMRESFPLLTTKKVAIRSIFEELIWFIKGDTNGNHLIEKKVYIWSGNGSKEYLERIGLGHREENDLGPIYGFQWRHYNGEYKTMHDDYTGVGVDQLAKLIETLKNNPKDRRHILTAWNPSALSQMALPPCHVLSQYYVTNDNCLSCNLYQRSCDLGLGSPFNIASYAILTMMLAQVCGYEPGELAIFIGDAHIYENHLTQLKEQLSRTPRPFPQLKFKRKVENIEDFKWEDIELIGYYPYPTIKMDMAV
assayText: ChDHFR enzyme inhibition assay
Type: biochemical
conditionSet: read-out: IC50 against ChDHFR
Experimental: Enzyme and inhibitor were allowed to incubate for 5 min before adding dihydrofolate to initiate the reaction. Enzyme assays were performed at least four times. IC50 values and their standard deviations were calculated in the presence of varying concentrations of inhibitor near the IC50 concentration. Compounds were evaluated in spectrophotometric enzyme assays using ChDHFR-TS and hDHFR. Inhibition constants (IC50) were measured (see Table 4). […]
Entries annotated with measured IC50
The response must be a number in µM with no trailing unit.

[
  {
    "compound": "COc1cc([C@@H](C)C#Cc2c(C)nc(N)nc2N)cc(OC)c1OC (racemic)",
    "IC50 [µM]": 0.038
  },
  {
    "compound": "CCC(c1cc(OC)c(OC)c(OC)c1)c1cnc(N)nc1N (racemic) [C7-ethyl TMP (rac), reference compound]",
    "IC50 [µM]": 4
  }
]

Attention now turns to another entry.
Item under review: COc1cc(C(C)c2cnc(N)nc2N)cc(OC)c1OC (racemic) [C7-methyl TMP (rac), reference compound] . Reported IC50? 340
